experiment: Selectivity index, ratio of CC50 for human HepDE19 cells to MIC80 for Cryptococcus neoformans KN99alpha; format: toxicity; conditions: read-out: Selectivity Index
parameter: selectivity ratio
// no unit, no text: just the number

Asked: Quick check: selectivity ratio of Cc1nc(NC2CC2)c([N+](=O)[O-])c(SC#N)n1 ?
Given back: 16
